observed-property: melting point

Below, 4 compounds whose answers are already recorded.
* COC(=O)C1=C(C)NC(C)=C(C(=O)OCCN2CCN(C(c3ccc(Cl)cc3)c3ccc(Cl)cc3)CC2)C1c1cccc([N+](=O)[O-])c1 (stereo not given) | 83 to 87 °C
* CN(C)CCCNc1ncc2c(n1)-c1ccccc1C(c1ccc(Cl)c(Cl)c1)C2 (stereo not given) | 59 to 62 °C
* Nc1sc2c(c1Cc1cccs1)CCN(Cc1ccccc1)C2 | 122 to 123 °C
* CC(=O)Nc1ccccc1-c1ccn[nH]c1=O | 235 to 236 °C

For the next question, use this compound.
Given the compound COc1cc(C(C)=O)c(O)cc1OCCCCl , what is its reported melting point?
99 to 101 °C

====

Listing of recorded melting point by entry.

* CCOC(=O)Cc1ccc(NC(=O)C(Cc2ccccc2)NS(=O)(=O)c2ccc(Cl)cc2)cc1 (racemic) | 148 to 150 °C

Given the molecule Cc1ccc(Nc2nc(C)c(-c3nc4ccccc4c(=O)n3-c3ccc(Cl)cc3)s2)cc1 , what is its reported melting point?
> 275 °C

Given the molecule CC(=O)CCC1(C(C)C)Cc2cc(OCC(=O)O)c(Cl)c(Cl)c2C1=O (centres undefined) , what is its reported melting point?
125 to 128 °C

Given the molecule CCn1c(=O)c2c(nc(/C=C/c3cc(OC)c4c(c3)OCO4)n2C)n(CC)c1=O , what is its reported melting point?
202 °C

====

Listing of recorded melting point by entry.

• O=C(CC1CCN(Cc2ccccc2)CC1)Nc1noc(C2CN3CCC2CC3)n1 (centres undefined) = 133 to 134 °C
• CCCn1c(=O)c2[nH]c(C3CCCC3)nc2n(CCc2ccc(NC(=O)C(C)C)cc2)c1=O = > 270 °C

Given the compound CC(C)(C)c1cn(N=Cc2cccnc2)c(=O)[nH]1 , what is its reported melting point?
255 to 256 °C

Given the compound Cc1nc(O)c(Br)cc1Br , what is its reported melting point?
> 225 °C

Given the compound CCC1(CC(=O)O)CCC(c2ccccc2)c2c1n(C)c1cc(OCc3ccc4ccccc4n3)ccc21 (centres undefined) , what is its reported melting point?
185 to 191 °C

====

Listing of recorded melting point by entry.

Below, 4 compounds whose answers are already recorded.
• CC(C)(O)Cn1c(CON=C2CCCC2)nc2c(N)nc3cccnc3c21 = 195 to 197 °C
• CC(C)c1c(C(=O)c2cc(Cl)cc(Cl)c2)[nH]c(=O)[nH]c1=O = 252 to 253 °C
• OCc1cc2cccc(Br)c2s1 = 82 to 83 °C
• Cc1cc(C)nc(NC(=O)NS(=O)(=O)c2c([N+](=O)[O-])ccc3c2CCC3)n1 = 172 °C

Given the compound CCOC(=O)C1=C(C)NC(C#N)=C(C(=O)OCC)C1c1ccco1 (stereo not given) , what is its reported melting point?
139 to 141 °C

Given the compound COC(=O)c1ccc(C=C2CCn3c2nc2cc([N+](=O)[O-])ccc2c3=O)cc1 , what is its reported melting point?
264 to 266 °C

Given the compound COC(=O)c1ccc2nc(C)n(Cc3ccc(C=C4SC(=O)NC4=O)cc3Cl)c2n1 , what is its reported melting point?
> 300 °C

====

Listing of recorded melting point by entry.

Below, 3 compounds whose answers are already recorded.
• CS(=O)(=O)c1ccc(-c2sc(-c3ccncc3)nc2-c2ccc(F)cc2)cc1 = 171 to 176 °C
• O=[N+]([O-])c1ccc(NCCF)nc1 = 126 to 127 °C
• O=C1c2ccccc2C(=O)N1CCc1ccc(C(F)(F)F)cc1 = 134 to 135 °C

Given the compound O=NN1CCN(c2ccc(Cl)cc2)C1=O , what is its reported melting point?
154 to 156 °C

Given the compound N#CCCNC(=O)c1cccc(-c2cccc3nn(Cc4ccccc4F)cc23)c1 , what is its reported melting point?
165 to 166 °C

Given the compound COC(=O)c1cnccc1C(=O)c1ccc(-n2ccnc2)cc1 , what is its reported melting point?
135 to 137 °C

Given the compound CC1(C)c2ccc(CCN3CCN(c4nsc5ccccc45)CC3)cc2C(C)(C)C1O (stereo not given) , what is its reported melting point?
47 to 49 °C

Given the compound CN1Cc2c(-c3nc(CN4C(=O)c5ccccc5C4=O)no3)ncn2-c2ccccc2C1=O , what is its reported melting point?
239 to 240 °C

Given the compound Nc1nc(-c2ccccc2)c(C(O)CO)c2ncnn12 (stereo not given) , what is its reported melting point?
199 to 200 °C

Given the compound O=C(O)c1cnncc1C(F)(F)F , what is its reported melting point?
150 to 151 °C

====

Listing of recorded melting point by entry.

* c1ccc(Cc2c[nH]c(-c3ncc[nH]3)n2)cc1 | 138 to 140 °C
* CCC(NC(C)=O)c1ccc(Cl)c2nc3n(c12)CCCN3c1ccc(Cl)cc1Cl (stereo not given) | 237 to 239 °C
* FC(F)C(F)(F)Oc1ccc(C=NNc2nc(Nc3ccc(OC(F)(F)F)cc3)nc(N3CCOCC3)n2)cc1 | 203 to 206 °C

Given the compound CCS(=O)(=O)c1nnc(N(C(C)=O)C(=O)N(C)C)s1 , what is its reported melting point?
145 °C

Given the compound COc1ccc2c(c1)C(N=Cc1cc(OC)c(OC)cc1[N+](=O)[O-])CCO2 (stereo not given) , what is its reported melting point?
143 to 145 °C

====

Listing of recorded melting point by entry.

Below, 6 compounds whose answers are already recorded.
- CC(=O)Nc1cc(F)c(OCC(F)F)cc1[N+](=O)[O-]: 72 to 74 °C
- O=C(O)CCCCN1CCN(C2=Nc3ccccc3Sc3ccc(Cl)cc32)CC1: 220 to 221 °C
- FC(F)c1nc2ccccc2n1-c1nc(Nc2cncnc2)nc(N2CCOCC2)n1: 290 to 292 °C
- COC1SC=C(C)NC1=O (stereo not given): 157 to 160 °C
- COC(=O)c1ccccc1-c1noc(-c2cccc(C(F)(F)F)c2)n1: 84.5 to 86.5 °C
- OC(c1ccccc1)c1nnnn1Cc1ccccc1 (stereo not given): 81 °C

Given the compound O=S(=O)(Nc1ccccc1NCCOc1ccc(Cl)cc1)c1ccc(Cl)cc1 , what is its reported melting point?
158 °C

Given the compound CC(C)(C)C(=O)OCc1nc(-c2cc(C(C)(C)C)c(O)c(C(C)(C)C)c2)cs1 , what is its reported melting point?
115 to 116 °C

Given the compound Cc1cc(C)cc(Cc2c(C(C)C)c(=O)[nH]c(=O)n2COCCCN(OC(=O)Oc2ccccc2)C(=O)Oc2ccccc2)c1 , what is its reported melting point?
59 to 61 °C

====

observed-property: melting point

Below, 8 compounds whose answers are already recorded.
* Cc1cc(C2CC(C)(C)NC(C)(C)C2)cc(C)c1O | 152 to 154 °C
* Cc1cccc(NC(=O)NCC(=O)N(c2ccccc2)C(C(=O)OC(C)(C)C)c2ccc(Cl)cc2)c1 (racemic) | 167 °C
* Cc1oc(-c2ccc(C(F)(F)F)cc2)nc1COc1cc(F)cc(CN(O)C(N)=O)c1 | 156 to 157 °C
* C[C@H]1C(=O)Nc2ccc(Cl)cc2N1C(=O)Oc1ccc(Cl)cc1 | 185 to 188 °C
* CCOC(=O)C=C1CCc2c(c(OC)c(OC)c(OC)c2OC)CC1 | 61 to 63 °C
* O=S(=O)(c1ccccc1)c1cc2cc(Cl)ccc2[nH]1 | 137 to 138 °C
* CNc1nccc(Oc2ccc(NC(=O)Nc3ccc(CN4CCN(C(C)(C)C)CC4)c(C(F)(F)F)c3)cc2)n1 | 257 to 258 °C
* CCCCCCCCCCCCCCCCCCNC(=O)OCC(CNS(=O)(=O)CCCI)n1nnnc1C (centres undefined) | 82.5 to 83.5 °C

For the next question, use this compound.
Given the compound CC1CN(c2ccc(Nc3cc(Br)cn(C)c3=O)nc2)C1 , what is its reported melting point?
135 to 136 °C

====

observed-property: melting point

Below, 6 compounds whose answers are already recorded.
- CCCCCCCC/C=C\c1ccccc1/C=C/C(C)=C/C=C/C(C)=C/C(=O)O: 103 to 105 °C
- CCCc1c(OCCCCCC(=O)NCCCCc2ccccn2)ccc(C(C)=O)c1O: 63 to 66 °C
- O=C1Nc2ccccc2C1C(=O)c1cccnc1 (stereo unspecified): 169 to 170 °C
- O=C1c2cccc3c(Cl)c(Cl)cc(c23)C(=O)N1O: 267 to 269 °C
- ClCc1coc(/C=C/c2ccccc2)n1: 72 to 73 °C
- COc1ccc(S(=O)(=O)Nc2cccc(C)c2N)cc1: 177 to 178 °C

Given the compound COc1ccc2ccccc2c1-c1c(C)c2c(c(C)c1P(=O)(c1ccccc1)c1ccccc1)COC2 , what is its reported melting point?
105 to 107 °C

Given the compound CCc1ccc(Nc2nnc(Cc3ccnc(O)c3)c3ccccc23)cc1Br , what is its reported melting point?
133 to 135 °C

Given the compound O=C(O)CSCCCCCn1nc(-c2ccccc2)c(-c2ccccc2)c1-c1ccccc1 , what is its reported melting point?
140 to 142 °C

Given the compound COC(=O)CCCS(=O)(=O)c1ccc(C)cc1 , what is its reported melting point?
23 °C

Given the compound N#Cc1ccc(N(CCCCOc2ccc(OS(N)(=O)=O)cc2)n2cnnc2)cc1 , what is its reported melting point?
164 to 172 °C

Given the compound Cc1ccc(C(=S)c2ccc(F)cc2)cc1 , what is its reported melting point?
88 °C

Origin of measurements: a melting point compilation (Tetko et al.; mined from patent text by program, amines drawn as free bases though some values may be those of a salt)
